EXPERIMENTAL DETAILS: Cytotoxicity against human Hs445 cells after 72 hrs by MTS assay
Format: functional, cell-based
SETUP CONDITIONS: Hs 445, 72 h
Quick list: pIC50 per entry.
Note on pIC50: it is the negative log10 of concentration, concentration in mol/L.

Answered cases to consult:
MOLECULE	pIC50
CCc1c(F)c(=O)[nH]c(=O)n1[C@@H]1O[C@H](COP(=O)(N[C@@H](C)C(=O)OCc2ccccc2)Oc2cccc3ccccc23)[C@@H](O)[C@H]1O (some centres not stated)	5.00
C[C@H](NP(=O)(OC[C@H]1O[C@@H](n2c(I)c(F)c(=O)[nH]c2=O)[C@H](O)[C@@H]1O)Oc1ccccc1)C(=O)OC1CCCCC1 (some centres not stated)	5.42

Okay, next one:
Specify reported pIC50 for the molecule shown: "[N-]=[N+]=Nc1c(F)c(=O)[nH]c(=O)n1[C@@H]1O[C@H](CO)[C@@H](O)[C@H]1O"
4.85

* * *

Tested on: RL
EXPERIMENTAL DETAILS: Cytotoxicity against human RL cells after 72 hrs by MTS assay
Assay type: functional, cell-based
OUTCOME MEASURE: pIC50
Interpret pIC50 as the negative base-10 log of the concentration measured in mol/L.

MOLECULE	EXPERIMENTAL TARGET	pIC50
CCCCCCOC(=O)[C@H](C)NP(=O)(OC[C@H]1O[C@@H](n2c(N=[N+]=[N-])c(F)c(=O)[nH]c2=O)[C@H](O)[C@@H]1O)Oc1ccccc1 (some centres not stated)	RL	4.70
Cc1c(F)c(=O)[nH]c(=O)n1[C@@H]1O[C@H](CO)[C@@H](O)[C@H]1O	RL	4.80
[N-]=[N+]=Nc1c(F)c(=O)[nH]c(=O)n1[C@@H]1O[C@H](CO)[C@@H](O)[C@H]1O	RL	5.00
CCc1c(F)c(=O)[nH]c(=O)n1[C@@H]1O[C@H](COP(=O)(N[C@@H](C)C(=O)OCc2ccccc2)Oc2cccc3ccccc23)[C@@H](O)[C@H]1O (some centres not stated)	RL	4.57

// below: pIC50 requested for another molecule
Hello, please tell me recorded pIC50 for this one: CCCCCCOC(=O)[C@H](C)NP(=O)(OC[C@H]1O[C@@H](n2c(N=[N+]=[N-])c(F)c(=O)[nH]c2=O)[C@H](O)[C@@H]1O)Oc1cccc2ccccc12 (some centres not stated)
5.05

* * *

Test system: SW-620
EXPERIMENTAL DETAILS: Cytotoxicity against human SW620 cells after 72 hrs by MTS assay
Type: functional, cell-based
SETUP CONDITIONS: SW-620, 72 h
Collected IC50 values appear next to each entry.
# value in µM; strip the unit string

Examples with their reported IC50 follow.
COMPOUND	IC50 [µM]
C[C@H](NP(=O)(OC[C@H]1O[C@@H](n2c(I)c(F)c(=O)[nH]c2=O)[C@H](O)[C@@H]1O)Oc1ccccc1)C(=O)OC1CCCCC1 (some centres undefined)	4.84
CCc1c(F)c(=O)[nH]c(=O)n1[C@@H]1O[C@H](COP(=O)(N[C@@H](C)C(=O)OCc2ccccc2)Oc2cccc3ccccc23)[C@@H](O)[C@H]1O (some centres undefined)	12
CCCCCCOC(=O)[C@H](C)NP(=O)(OC[C@H]1O[C@@H](n2c(N=[N+]=[N-])c(F)c(=O)[nH]c2=O)[C@H](O)[C@@H]1O)Oc1ccccc1 (some centres undefined)	38

Pending compound:
Please indicate IC50 recorded for C[C@H](NP(=O)(OC[C@H]1O[C@@H](n2c(I)c(F)c(=O)[nH]c2=O)[C@H](O)[C@@H]1O)Oc1cccc2ccccc12)C(=O)OCc1ccccc1 (some centres undefined)
0.52

Source: ChEMBL document CHEMBL4219052
